- assay_details: NCI Yeast Anticancer Drug Screen. Data for the rad14 strain (AID 159);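 also: 0% = growth of vehicle-treated control cultures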
- applied_conditions: S. cerevisiae rad14 strain growth inhibition; at 11.0 µM; stronger effect = higher value
This is part of a sample that, as a whole, favours compounds with a hit. Of some 79,000 tested, about 15% had one in any assay.
measurement_kind: growth inhibition (%)
Answers are plain numbers, in %.

Consider the following illustrative entries.
In: Query (molecule): COc1cc([C@@H]2c3cc4c(cc3[C@@H](OC3OC5COC(C)OC5C(O)C3O)[C@H]3COC(=O)[C@H]23)OCO4)cc(OC)c1O (stereo partly drawn) ; field requested: growth inhibition
Out: 3

In: Would you kindly repeat that for Oc1ccc(Br)cc1C=NC1CCCCC1 ?
Out: 85

In: Would you kindly repeat that for CC1=CCCC2C1(C)CCC(C)C2(C)Cc1cc(O)ccc1O (stereo not drawn) ?
Out: 35

In: Would you kindly repeat that for C=C1N(C)c2ccc(Cl)cc2C1(C)C ?
Out: -23

In: Would you kindly repeat that for NC(=O)N1c2ccccc2C=Cc2ccccc21 ?
Out: -41

In: Would you kindly repeat that for C/C(=N\NC(=S)NNC(=S)N(C)c1ccccc1)c1ccccn1 ?
Out: 97

In: Would you kindly repeat that for Oc1ccc(C=Nc2ccccc2O)cc1 ?
Out: 20

In: Would you kindly repeat that for CCOP1(=O)C=C(Sc2ccc([N+](=O)[O-])cc2[N+](=O)[O-])C(C)(C)O1 (stereo not drawn) ?
Out: 9

In: Would you kindly repeat that for O=S(=O)(N/N=C/c1cccc(Cl)c1)c1ccccc1 ?
Out: -1

In: Would you kindly repeat that for CCCCCC#CCOC(=O)C(=[N+]=[N-])P(=O)(c1ccccc1)c1ccccc1 ?
Out: -9

Please supply growth inhibition for each of the following items, keeping them in order.
1. COc1ccc2c(c1)[nH]c1c(/C=C/c3ccccc3)nccc12
2. S=c1nc(Cl)cc2[nH]c(Cl)cn12
3. Cc1nc2c(ncn2CCO)c(=O)[nH]1
4. O=C(N/N=C\c1c(Cl)cccc1Cl)N/N=C/c1c(Cl)cccc1Cl
5. Cc1ccc(I)cc1N=C=S

Out:
1. -22
2. 10
3. 11
4. 8
5. 11

Please supply growth inhibition for each of the following items, keeping them in order.
1. CN(C)c1ccc(/C=C/c2ccnc3ccccc23)cc1N
2. Cc1cccc(/C=N\NC(=S)N2CCCCC2)n1

Out:
-8
98

In: Query (molecule): NNC(=S)Nc1cccc(Cl)c1 ; field requested: growth inhibition
Out: -28

Attribution: PubChem BioAssay (NCI)
